All values here come from patent US20250163057A1.

Reported pIC50 values for a set of compounds
# Test system: DCN1 (DCUND1) protein PONY domain (Homo sapiens (Human), UniProt Q96GG9)
# Sequence (Q96GG9 60-248): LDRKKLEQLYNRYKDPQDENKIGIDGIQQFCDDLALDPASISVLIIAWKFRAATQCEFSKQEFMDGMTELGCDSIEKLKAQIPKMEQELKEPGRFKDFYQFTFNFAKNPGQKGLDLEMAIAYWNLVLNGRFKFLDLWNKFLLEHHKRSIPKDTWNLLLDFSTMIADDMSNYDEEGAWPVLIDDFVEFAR
# Measurement notes: TR-FRET assay, DCN1 binding with FAM-labeled probe
# Measurement context: 24 hr after treatment with compound; read-out: TR FRET IC50 24 hr
# Experimental: A TR-FRET assay was performed to evaluate the ability of the compounds to bind the DCN-1 protein. The TR-FRET assay was designed following the Scott et al. protocol (Scott et al., Nat Chem Biol. 2017 August; 13(8): 850-857. Doi:10.1038/nchembio.2386). […] The TR-FRET ratio between Tb-DCN1 and the FAM-labeled probe was measured in a 384-well opti-plate (Perkin Elmer) using a plate reader (BMG) at 1, 5, and 24 hrs after treatment with compound (final DMSO concentration of 0.1%).
pIC50: −log10 of the molar value.

In the examples that follow, each entry is paired with its recorded pIC50.
CCN1C(=O)[C@@H](NC(=O)c2cccc(C(F)(F)F)c2)[C@@H](c2ccc(F)cc2)c2c(C(=O)N(C)[C@@H](C#N)CCN3CCC34COC4)nn(-c3ccccc3)c21
≥ 6.70
CCN1C(=O)[C@@H](NC(=O)C23CC(C(F)F)(C2)C3)[C@@H](C2CC2)c2c(C(=O)N3[C@H](C#N)C[C@H]4C[C@H]43)nn(C3CCOCC3)c21
5.52 to 6.00
CCN1C(=O)[C@@H](NC(=O)c2cccc(C(F)(F)F)c2)C(c2ccc(F)cc2)c2c(C(=O)N(C)C(C)C#N)nn(C3CCOCC3)c21 (stereo partly drawn)
≥ 6.70
CCN1C(=O)[C@@H](NC(=O)c2cccc(C(F)(F)F)c2)[C@@H](c2ccc(F)cc2)c2c(NC(=O)C(C)(C)C#N)nn(-c3ccccc3)c21 (racemic)
6.00 to 6.70
CCN1C(=O)[C@@H](NC(=O)c2cccc(C(F)(F)F)c2)[C@@H](c2ccc(F)cc2)c2c(C(=O)N3CCOC[C@H]3C#N)nn(-c3ccccc3)c21 [Compound I-276]
≥ 6.70

Could you share which pIC50 value was measured for CCN1C(=O)[C@H](NC(=O)c2cccc(C(F)(F)F)c2)[C@H](c2ccc(F)cc2)c2c(C(=O)N(CC#N)C3CC3)nn(-c3ccccc3)c21 (stereo in doubt) ?
5.52 to 6.00

What does the data say about its pIC50? Entry: `CCN1C(=O)[C@@H](NC(=O)c2cccc(C(F)(F)F)c2)[C@@H](c2ccc(F)cc2)c2c(C(=O)N3CC[C@@H]3C#N)nn(-c3ccccc3)c21`
6.00 to 6.70

I'd like to know its pIC50. The compound in question is CCN1C(=O)[C@@H](NC(=O)c2cccc(C(F)(F)F)c2)[C@@H](c2ccc(F)cc2)c2c(CNC(=O)CC#N)nn(-c3ccccc3)c21 (racemic)
6.00 to 6.70
